- TEST_TARGET: Endothelin receptor type B (Homo sapiens, UniProt P24530)
- Sequence (P24530 whole entry): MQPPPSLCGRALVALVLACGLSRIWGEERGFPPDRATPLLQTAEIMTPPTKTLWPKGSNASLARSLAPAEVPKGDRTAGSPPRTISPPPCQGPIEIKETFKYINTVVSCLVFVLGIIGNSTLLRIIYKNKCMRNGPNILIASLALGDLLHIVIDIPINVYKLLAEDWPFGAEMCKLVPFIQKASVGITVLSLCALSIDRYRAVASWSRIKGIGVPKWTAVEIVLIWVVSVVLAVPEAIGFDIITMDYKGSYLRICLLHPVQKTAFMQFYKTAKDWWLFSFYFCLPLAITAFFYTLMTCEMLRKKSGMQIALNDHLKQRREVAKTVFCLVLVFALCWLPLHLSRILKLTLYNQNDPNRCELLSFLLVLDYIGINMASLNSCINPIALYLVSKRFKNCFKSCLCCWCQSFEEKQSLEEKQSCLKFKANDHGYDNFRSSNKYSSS
- ASSAY_SUMMARY: Tested for antagonistic activity against Endothelin B receptor in the humans (CHO expressed).
- Assay type: functional
pIC50: −log10 of the molar value.
Returns one of met or not met; met when pIC50 is >= 6.

O=C1OC(O)(c2ccc(Cl)c(Cl)c2)C(Cc2ccccc2)=C1c1ccc2c(c1)OCO2 (stereo not drawn)
not met

Prompt line: Please check the record COc1ccc(CC2=C(c3ccc4c(c3)OCO4)C(=O)OC2(O)c2ccc(OC)cc2)cc1 (stereo not drawn) and state if its pIC50 is at or above 6.
Response line: not met

Prompt line: Please check the record COc1ccc(CC2=C(c3ccc(C)cc3)C(=O)OC2(O)c2ccc(OC)cc2)cc1 (stereo not drawn) and state if its pIC50 is at or above 6.
Response line: not met

Prompt line: Please check the record COc1ccc(C2(O)OC(=O)C(c3ccc4c(c3)OCO4)=C2Cc2ccc(C)cc2)cc1 (stereo not drawn) and state if its pIC50 is at or above 6.
Response line: met

Prompt line: Please check the record COc1ccc(C2(O)OC(=O)C(c3ccc4c(c3)OCO4)=C2Cc2ccccc2)cc1C (stereo not drawn) and state if its pIC50 is at or above 6.
Response line: not met

Prompt line: Please check the record COc1ccc(CC2=C(c3ccccc3)C(=O)OC2(O)c2ccc(OC)cc2)cc1 (stereo not drawn) and state if its pIC50 is at or above 6.
Response line: not met

====

For each entry below, report its pIC50 value.
- TEST_TARGET: Endothelin receptor type B (Homo sapiens)
- ASSAY_SUMMARY: Tested for antagonistic activity against Endothelin B receptor in the humans (CHO expressed).
- Assay type: functional
One number for each entry, as −log10 of the molar value.

COc1ccc(C(=O)/C(Cc2cc(OC)c(OC)c(OC)c2)=C(\C(=O)O)c2ccc3c(c2)OCO3)cc1 [PD-156707 SODIUM]
6.38
O=C1OC(O)(c2ccc(Cl)cc2)C(Cc2ccccc2)=C1c1ccc2c(c1)OCO2 (configuration not stated)
4.57

Then this compound:
Prompt line: For the compound COc1ccc(C2(O)OC(=O)C(c3ccc4c(c3)OCO4)=C2Cc2ccc(OC)c(C)c2)cc1 (configuration not stated) , what pIC50 is on record?
Response line: 5.94
